Biological target: H^+,K^+-ATPase A125S (Sus scrofa, UniProt P19156, A126S)
Sequence (P19156 whole entry A126S): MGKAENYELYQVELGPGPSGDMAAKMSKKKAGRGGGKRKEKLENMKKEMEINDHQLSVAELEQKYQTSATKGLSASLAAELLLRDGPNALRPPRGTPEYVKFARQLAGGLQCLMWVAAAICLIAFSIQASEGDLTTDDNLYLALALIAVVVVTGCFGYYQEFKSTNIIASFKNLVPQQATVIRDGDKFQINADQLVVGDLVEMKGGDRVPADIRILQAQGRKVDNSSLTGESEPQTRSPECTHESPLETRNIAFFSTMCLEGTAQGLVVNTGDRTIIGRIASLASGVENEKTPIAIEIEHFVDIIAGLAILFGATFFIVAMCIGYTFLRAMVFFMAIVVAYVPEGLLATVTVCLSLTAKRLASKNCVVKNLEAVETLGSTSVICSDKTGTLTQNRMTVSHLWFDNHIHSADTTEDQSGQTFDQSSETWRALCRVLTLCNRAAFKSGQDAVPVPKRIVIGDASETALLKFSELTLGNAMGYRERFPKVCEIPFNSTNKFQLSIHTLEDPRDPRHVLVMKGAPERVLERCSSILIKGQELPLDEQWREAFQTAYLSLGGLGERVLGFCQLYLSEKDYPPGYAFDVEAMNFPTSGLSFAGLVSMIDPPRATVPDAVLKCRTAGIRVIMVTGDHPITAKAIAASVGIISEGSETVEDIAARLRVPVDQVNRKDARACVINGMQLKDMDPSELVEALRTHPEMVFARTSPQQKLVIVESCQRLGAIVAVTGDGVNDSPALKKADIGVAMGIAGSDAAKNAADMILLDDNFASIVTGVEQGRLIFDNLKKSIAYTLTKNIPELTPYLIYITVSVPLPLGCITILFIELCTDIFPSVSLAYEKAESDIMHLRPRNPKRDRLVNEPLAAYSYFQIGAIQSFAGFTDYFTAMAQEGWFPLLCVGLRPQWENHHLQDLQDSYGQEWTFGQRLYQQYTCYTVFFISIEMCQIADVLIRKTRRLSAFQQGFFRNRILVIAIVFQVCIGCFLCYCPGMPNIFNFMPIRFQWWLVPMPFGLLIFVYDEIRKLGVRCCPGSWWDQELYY
Sequence (P18434 whole entry partner): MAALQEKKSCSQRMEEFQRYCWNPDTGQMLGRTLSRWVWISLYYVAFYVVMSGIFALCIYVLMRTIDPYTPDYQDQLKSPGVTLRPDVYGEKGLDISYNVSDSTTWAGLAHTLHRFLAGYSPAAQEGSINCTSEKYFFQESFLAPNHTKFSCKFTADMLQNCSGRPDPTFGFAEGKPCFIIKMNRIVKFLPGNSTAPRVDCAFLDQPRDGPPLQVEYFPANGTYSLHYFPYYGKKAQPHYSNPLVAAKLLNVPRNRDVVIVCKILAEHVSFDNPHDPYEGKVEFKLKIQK
Assay: ATPase assay, A125S mutant
property_measured: pKi
Value format note: pKi is -log10 of concentration (mol/L); just state the number.

In: Record request: pKi value, item Cc1nc2c3c(ccn2c1C)[C@@H](O)[C@H](O)[C@@H](c1ccccc1)N3
Out: 7.57

----------
This section presents compounds with their documented -fold increase in K i compared with wild-type values.
Biological target: H^+,K^+-ATPase Y140A (Sus scrofa, UniProt P19156, Y141A)
Sequence (P19156 whole entry Y141A): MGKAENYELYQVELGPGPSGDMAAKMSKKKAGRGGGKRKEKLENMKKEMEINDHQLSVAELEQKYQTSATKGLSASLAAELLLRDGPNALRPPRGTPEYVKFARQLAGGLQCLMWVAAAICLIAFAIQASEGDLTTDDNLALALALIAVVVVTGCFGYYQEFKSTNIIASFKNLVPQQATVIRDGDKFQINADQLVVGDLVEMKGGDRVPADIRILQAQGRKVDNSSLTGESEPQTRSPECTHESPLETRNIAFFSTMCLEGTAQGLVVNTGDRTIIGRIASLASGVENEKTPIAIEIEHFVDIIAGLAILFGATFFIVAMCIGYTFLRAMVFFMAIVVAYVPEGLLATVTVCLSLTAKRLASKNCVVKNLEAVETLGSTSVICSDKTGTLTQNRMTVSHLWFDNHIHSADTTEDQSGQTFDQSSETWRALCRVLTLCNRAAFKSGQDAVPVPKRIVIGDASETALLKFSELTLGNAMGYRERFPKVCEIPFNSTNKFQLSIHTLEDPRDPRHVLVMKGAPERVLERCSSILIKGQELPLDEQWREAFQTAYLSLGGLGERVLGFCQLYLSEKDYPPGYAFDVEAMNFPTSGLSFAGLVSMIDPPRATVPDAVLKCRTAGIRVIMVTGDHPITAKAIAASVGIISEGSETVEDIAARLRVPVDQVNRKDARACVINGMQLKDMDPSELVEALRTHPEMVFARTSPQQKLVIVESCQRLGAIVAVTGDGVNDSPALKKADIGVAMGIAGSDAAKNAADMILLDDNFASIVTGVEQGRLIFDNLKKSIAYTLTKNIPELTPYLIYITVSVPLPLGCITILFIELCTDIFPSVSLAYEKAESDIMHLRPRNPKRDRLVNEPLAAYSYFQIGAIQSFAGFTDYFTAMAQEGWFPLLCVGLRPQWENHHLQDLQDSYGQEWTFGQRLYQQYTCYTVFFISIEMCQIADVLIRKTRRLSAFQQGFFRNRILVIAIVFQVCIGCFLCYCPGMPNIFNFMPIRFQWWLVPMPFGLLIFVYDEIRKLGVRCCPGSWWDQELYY
Sequence (P18434 whole entry partner): as the sequence (P18434 whole entry partner) above
Test: ATPase assay, Y140A mutant
Settings: Y140A
Report the figure in fold without appending any unit label.

Solved entries:
1. N#CCc1cnc2c(OCc3ccccc3)cccn12: 1.2
2. Cc1cn2cccc(OCc3ccccc3)c2n1: 2.3
3. Cc1nc2c3c(ccn2c1C)[C@@H](O)[C@H](O)[C@@H](c1ccccc1)N3: 4.3

Now consider a different compound.
In: Record request: -fold increase in K i compared with wild-type value, item Cc1nc2c3c(ccn2c1C)[C@@H](O)[C@H](O)[C@@H](c1ccccc1)N3C
Out: 2.9
